Below, IC50 values reported for UniProtKB P78356 across several publications.

The following molecules have reported results that may help.
>>> result("O=C(NCc1nc2ccccc2s1)c1cc2c(-c3cncc(-c4ccc(N5CCCC5=O)cc4)c3)ccnc2[nH]1")
"10 to 100 nM"
>>> result("CN(C)C(=O)c1ccc(-c2ccc(Nc3cnc4c(c3)N(C(=O)C(C)(C)CO)CCO4)nc2)cc1")
"10 to 100 nM"
>>> result("O=C1CCCN1c1ccc(-c2cnc(Nc3cnc4c(c3)N3C(=O)CC[C@H]3CO4)cc2OC2CCC2)cc1")
"1 to 10 nM"
>>> result("O=C(NCCc1ccccn1)c1cc2c(-c3cncc(-c4ccc(N5CCCC5=O)cc4)c3)ccnc2[nH]1")
"10 to 100 nM"

# next molecule below
Request: # input molecule: CN(c1nc(Nc2cnc3c(c2)N2C(=O)CC[C@H]2CO3)ncc1-c1ccc(N2CCCC2=O)cc1)[C@H]1CCOC1 ; wanted: its IC50
Response: 1 to 10 nM
